The measured values listed here are drawn from paper PMC11061149.

Tested on: UA196 worms (human αS and GFP in DA neurons)
Assay: Confocal counting of healthy DA neurons in UA196 worms, early treatment (day two and four)
Type: in vivo, C. elegans
Conditions: 50 µM ligand on day two and four, day 15 (untreated 13.5)
# number of intact DA neurons in UA196 worms (max. 60) per entry
Just the number, please, no unit after it.

Solved entries:
INSERT INTO assay_data (recordsmiles, measuredon, reportedvalue) VALUES
  ('C=C(c1ccc(C(=O)O)cc1)c1cc2c(cc1C)C(C)(C)CCC2(C)C', 'UA196 worms (human αS and GFP in DA neurons)', 19.3),
  ('CCCC(CCC)C(=O)O', 'UA196 worms (human αS and GFP in DA neurons)', 18.7),
  ('O=C(O[C@@H]1Cc2c(O)cc(O)cc2O[C@@H]1c1cc(O)c(O)c(O)c1)c1cc(O)c(O)c(O)c1', 'UA196 worms (human αS and GFP in DA neurons)', 30.5),
  ('OCCc1ccc(O)cc1', 'UA196 worms (human αS and GFP in DA neurons)', 21.7);

Okay, now this compound:
Request: Please look at this compound and report its number of intact DA neurons in UA196 worms (max. 60): "Cc1ccc(NC(=O)c2ccc(NC(=O)c3ccc([N+](=O)[O-])c(NCCc4c[nH]c5ccccc45)n3)c(NCC3CCCCC3)n2)c(OCC(=O)O)n1"
Response: 51
